Target: h-Sortilin (Homo sapiens)
Sequence (Q99523 78-831): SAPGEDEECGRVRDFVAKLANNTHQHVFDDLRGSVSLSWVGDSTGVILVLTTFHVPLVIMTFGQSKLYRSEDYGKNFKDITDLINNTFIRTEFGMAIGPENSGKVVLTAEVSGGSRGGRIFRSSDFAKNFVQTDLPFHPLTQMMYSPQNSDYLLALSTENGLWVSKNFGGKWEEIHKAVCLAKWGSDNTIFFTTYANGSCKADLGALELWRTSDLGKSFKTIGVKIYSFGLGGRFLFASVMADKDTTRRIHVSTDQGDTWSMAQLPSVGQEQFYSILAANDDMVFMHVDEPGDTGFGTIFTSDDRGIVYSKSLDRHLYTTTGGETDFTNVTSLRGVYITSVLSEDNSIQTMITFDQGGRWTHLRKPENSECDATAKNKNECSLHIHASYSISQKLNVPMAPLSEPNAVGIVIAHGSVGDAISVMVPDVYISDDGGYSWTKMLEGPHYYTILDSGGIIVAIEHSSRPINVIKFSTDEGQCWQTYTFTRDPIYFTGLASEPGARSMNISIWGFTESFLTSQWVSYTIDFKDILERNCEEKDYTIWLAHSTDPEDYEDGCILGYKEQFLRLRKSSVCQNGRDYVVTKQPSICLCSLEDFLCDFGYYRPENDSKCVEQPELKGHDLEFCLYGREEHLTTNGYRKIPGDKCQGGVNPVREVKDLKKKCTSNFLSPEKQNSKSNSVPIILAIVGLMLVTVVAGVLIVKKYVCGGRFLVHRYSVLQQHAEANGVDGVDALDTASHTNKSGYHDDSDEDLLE
Entries and their pIC50
Remember, pIC50 is on a log scale: it is -log10 of the molar concentration.

# compound, pIC50
records = [
    ("CC(C)(C)CCC(Nc1cccnc1)c1nn[nH]n1 (racemic)", 5.00),
]

Now for the compound whose pIC50 we want.
Lookup: Supply measured pIC50 of CC(C)(C)CC[C@H](Nc1cnccn1)C(=O)O in your reply.
Found: 5.97
